target: Aurora kinase B (Homo sapiens, UniProt Q96GD4); test: Inhibition of human recombinant His-tagged aurora B expressed in baculovirus infected Sf21 insect cells by Western blot analysis
Sequence (Q96GD4 whole entry): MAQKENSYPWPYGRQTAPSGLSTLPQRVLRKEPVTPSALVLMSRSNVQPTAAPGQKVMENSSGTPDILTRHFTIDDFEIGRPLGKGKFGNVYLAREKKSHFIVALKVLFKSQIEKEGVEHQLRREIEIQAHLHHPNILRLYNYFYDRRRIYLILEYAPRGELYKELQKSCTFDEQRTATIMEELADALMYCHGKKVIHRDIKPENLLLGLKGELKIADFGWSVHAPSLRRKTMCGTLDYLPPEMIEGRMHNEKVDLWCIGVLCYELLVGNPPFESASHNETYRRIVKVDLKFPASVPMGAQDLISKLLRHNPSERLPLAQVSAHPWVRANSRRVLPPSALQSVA
property-name: IC50 (µM)

>>> observed("COc1ccc(C2CC(c3ccc4ccccc4c3O)=NN2C(=S)Nc2cccc(OC)c2)cc1 (stereo unspecified)")
8.53

----------
tested on: HCT-116; assay: Growth inhibition of human HCT116 cells after 7 days by clonogenic survival assay; format: functional; conditions: HCT-116, 168 h, read-out: pGI50 (converted)
We begin with a simple list: items and their reported GI50.
property-name: GI50 (nM)

>>> observed("COc1ccccc1C1CC(c2c(O)ccc3ccccc23)=NN1C(=S)Nc1cc(OC)c(OC)c(OC)c1 (configuration not stated)")
1000
>>> observed("COc1ccc(NC(=S)N2N=C(c3ccc4ccccc4c3O)CC2c2ccccc2OC)cc1 (configuration not stated)")
372
>>> observed("COc1ccc(C2CC(c3ccc4ccccc4c3O)=NN2C(=S)Nc2cc(OC)c(OC)c(OC)c2)cc1 (configuration not stated)")
209
>>> observed("COc1cccc(NC(=S)N2N=C(c3ccc4ccccc4c3O)CC2c2cccc(OC)c2)c1 (configuration not stated)")
269
>>> observed("COc1ccccc1NC(=S)N1N=C(c2ccc3ccccc3c2O)CC1c1ccccc1OC (configuration not stated)")
4900
>>> observed("COc1ccc(NC(=S)N2N=C(c3ccc4ccccc4c3O)CC2c2cccc(OC)c2)cc1 (configuration not stated)")
316
>>> observed("COc1ccccc1C1CC(c2ccc3ccccc3c2O)=NN1C(=S)Nc1ccccc1 (configuration not stated)")
741
>>> observed("COc1ccc(NC(=S)N2N=C(c3c(O)ccc4ccccc34)CC2c2ccccc2OC)cc1 (configuration not stated)")
741
>>> observed("COc1cccc(C2CC(c3ccc4ccccc4c3O)=NN2C(=S)Nc2ccc(OC)cc2OC)c1 (configuration not stated)")
2450
>>> observed("COc1ccc(C2CC(c3ccc4ccccc4c3O)=NN2C(=S)Nc2cccc(OC)c2)cc1 (configuration not stated)")
195
>>> observed("COc1ccccc1C1CC(c2c(O)ccc3ccccc23)=NN1C(=S)Nc1ccccc1 (configuration not stated)")
2510
>>> observed("COc1ccc(C2CC(c3ccc4ccccc4c3O)=NN2C(=S)Nc2ccccc2OC)cc1 (configuration not stated)")
3550
>>> observed("COc1ccc(C2CC(c3ccc4ccccc4c3O)=NN2C(=S)Nc2ccccc2)cc1 (configuration not stated)")
240
>>> observed("COc1cccc(C2CC(c3ccc4ccccc4c3O)=NN2C(=S)Nc2ccccc2OC)c1 (configuration not stated)")
3890
>>> observed("COc1ccc(NC(=S)N2N=C(c3ccc4ccccc4c3O)CC2c2ccc(OC)cc2)cc1 (configuration not stated)")
234
>>> observed("COc1ccc(C2CC(c3ccc4ccccc4c3O)=NN2C(=S)Nc2ccc(OC)cc2OC)cc1 (configuration not stated)")
2450
>>> observed("COc1cccc(C2CC(c3ccc4ccccc4c3O)=NN2C(=S)Nc2cc(OC)c(OC)c(OC)c2)c1 (configuration not stated)")
200
>>> observed("COc1ccc(NC(=S)N2N=C(c3ccc4ccccc4c3O)CC2c2ccccc2OC)c(OC)c1 (configuration not stated)")
4170
>>> observed("COc1ccccc1NC(=S)N1N=C(c2c(O)ccc3ccccc23)CC1c1ccccc1OC (configuration not stated)")
3980
>>> observed("COc1cccc(C2CC(c3ccc4ccccc4c3O)=NN2C(=S)Nc2ccccc2)c1 (configuration not stated)")
324
>>> observed("COc1ccccc1C1CC(c2ccc3ccccc3c2O)=NN1C(=S)Nc1cc(OC)c(OC)c(OC)c1 (configuration not stated)")
224
>>> observed("COc1cccc(NC(=S)N2N=C(c3ccc4ccccc4c3O)CC2c2ccccc2OC)c1 (configuration not stated)")
447
